Values were extracted from PubChem BioAssay (NCI).

# Test system: MDA-MB-231 breast
# Assay Name: NCI-60 one-dose screen, 48 h (100 = growth as untreated, 0 = no growth, -100 = all killed)
# Details: 10 µM unless noted
About 83,000 compounds went through this panel and 20% of them were active in at least one assay; those are over-represented in the sample as a whole.
# growth binned as one: < 20%; two: ≥ 20% and < 90%; three: ≥ 90%

Place this compound in its band: C=C1CC[C@@H]2[C@](C)(COC(C)=O)[C@H](OC(C)=O)CC[C@@]2(C)[C@@H]1CC(Nc1ccc(S(=O)(=O)Nc2nc(C)cc(C)n2)cc1)C1=CCOC1=O (some centres not stated)
three

Place this compound in its band: CCCCCCCCSC1=CC(=O)C(OC)=C(OC)C1=O
two

For the record CSc1nc(NCCO)c(C#N)c(-c2cccc(N)c2)n1 , report the class its growth corresponds to.
two

Would you mind sorting CC(=O)C1=C(O)C=C2Oc3c(C(=O)/C=C/c4c(Cl)cccc4Cl)c(O)c(C)c(O)c3[C@]2(C)C1=O into the appropriate category?
one

Form field 'band' for OC(c1cc(-c2ccccc2)nc2ccc(Cl)cc12)C1CCCCN1 (configuration not stated)
one

Using the reported growth, which band applies to c1ccc2c(Nc3cccc4ccccc34)cccc2c1 ?
two

Record O=C(CCN1CCOCC1)Nc1ccc(Cn2nnc3c2C(=O)c2nnn(Cc4ccc(NC(=O)CCN5CCOCC5)cc4)c2C3=O)cc1 — which class?
one

Please indicate the class for Oc1c(Cl)cc(Cl)cc1CNc1nccnn1 based on its growth.
three

Class? Entry: CS(CCCCN=C=S)=NC(=O)c1c(F)c(F)c(F)c(F)c1F (configuration not stated)
two

Sort into band: N=S(=O)(NC(=O)c1ccc(Cl)cc1Cl)c1ccc(Br)s1 (configuration not stated)
three

Class? Entry: Cc1ccc(Nc2nc(N)nc(Nc3ccc4ccccc4c3)n2)cc1
two

Determine which band this compound sits in: O=C1C[C@H](N2C(=O)c3ccccc3S2(=O)=O)C2CO[C@@H]1O2
three

Into which bin does this compound go? C#Cc1nc(Nc2cc(C)[nH]n2)c2ccccc2n1
one

Exercise: read the entry CCOC(=O)CC(C)=N and state which class it falls under.
three

Exercise: read the entry COc1cc(C2CC(=O)Nc3c2cnn3Cc2ccco2)cc2c1OCCO2 (configuration not stated) and state which class it falls under.
three

Just checking, what class would you give COc1ccc(/C=C2\N=C3SC=C(N)N3C2=O)cc1 here?
two

State the band of Cc1ccc(SCN2CCN(c3cccc(Cl)c3)CC2)cc1
two

# bin lookup: classify COc1c(C2CC(=O)Nc3c2cnn3Cc2ccco2)cc2c(c1OC)OCO2 (configuration not stated) by its growth
one

Category lookup for the compound COc1ccc(C(=O)/C=C/c2c[n+](=O)c3ccc(F)cc3n2[O-])cc1
three

Which class holds CNc1nc(C)c(-c2nc(Nc3cccc(S(N)(=O)=O)c3)ncc2F)s1 ?
one

Form: Item = O=C1c2cccnc2C(=O)c2c1c(C(=O)OCCN1CCOCC1)c1ccccn21 ; Class = ?
one

* * *

# Tested on: NCI-H460 lung
# Assay Name: NCI-60 one-dose screen, 48 h
# Details: 10 µM unless noted
Compounds without any hit were thinned out: in the full panel of roughly 83,000, 20% have a hit. Calls of active or inactive are those of the source. Rule for the calls: active = growth percent below 10; inactive = the rest.
Bench note: report the call from YES (active), NO (inactive)

Please indicate how the test categorized CC(=O)OCC1OC(OC2=C(CC=C(Cl)Cl)C(=O)c3ccccc3C2=O)C(OC(C)=O)C(OC(C)=O)C1OC(C)=O (centres undefined) .
NO

Test call, this compound: Cc1ccc(C2CC3c4ccccc4C2C2CCCCN32)cc1 (centres undefined)
NO

# outcome recorded in this test, key = CCN(CC)CCCNc1cccc2c(SCc3ccccc3)ccnc12
NO

Recorded call for COc1ccc(/C=C/C(=O)c2ccc(NC(=O)c3cc4cc5ccccc5nc4s3)cc2)cc1OC ?
NO

Call for entry O=C1CC(c2nc3ccccc3[nH]2)CN1C1CCCCC1 (centres undefined) :
NO

# lookup: test call for O=C(CNC1C2CC3CC(C2)CC1C3)Sc1nnc2sc3ccccc3n12 (centres undefined)
NO

Please share the test call associated with Cc1cc(Cl)ccc1Nc1nc(C(F)(F)F)ccc1C(=O)N/N=C/c1ccc(F)cc1 .
YES

Which outcome did this test record for the compound CCCC(=O)Oc1ccc(/C(=C(/CC)Cc2ccccc2)c2ccc(OCCN3CCCC3)cc2)cc1 ?
NO

For O=C1CCc2c(sc3[nH]c(=S)n(Cc4ccccc4)c(=O)c23)C1 , which call appears in the assay record?
YES

Could you please tell me the result logged for O=C(/C=C/c1cccc(Br)c1)c1ccccc1 in this assay?
NO

Hi team, can someone confirm the assay call for COc1c(C2CC(=O)Nc3c2cnn3Cc2ccco2)cc2c(c1OC)OCO2 (centres undefined) ?
YES

Look up the recorded call for O=C(C[C@@H](C(=O)NCc1cccc(C(F)(F)F)c1)N1C(=O)[C@@H](N2C(=O)OC[C@@H]2c2ccccc2)[C@H]1/C=C/c1ccccc1)NC1CCN(Cc2ccccc2)CC1 in this test.
NO

Could you kindly confirm the outcome this assay logged for CCOC(=O)c1c2c(n3ccc(NC(=O)CCN4CCCCC4)cc13)C(=O)c1ncccc1C2=O ?
YES

Lab log entry: O=C1/C(=C/c2ccc(Cl)cc2Cl)CN(S(=O)(=O)c2ccccc2)C/C1=C\c1ccc(Cl)cc1Cl — outcome as called in the assay?
YES

For O=C(NC(Cc1ccccc1)C(=O)CCl)OCc1ccccc1 (centres undefined) , what call appears in the results of this test?
NO

Give the logged outcome of this assay for the following compound: CNCCCn1c2c(c3ccc([N+](=O)[O-])cc3c1=O)C(=O)c1cc(OC)cnc1-2
YES

Hi, do you know how Cl/C(=N\Nc1ccccc1)c1ccccc1 came out in this test?
NO

Name the outcome recorded for COc1ccc2nc(NC(=O)c3cccnc3Nc3cc(OC)c(OC)c(OC)c3)sc2c1 in the assay.
YES

State the result this test recorded for C=C1CC2(OC1=O)C(=O)N(CCCCCCCCCCCCN1C(=O)C3(CC(=C)C(=O)O3)c3ccccc31)c1ccccc12 (centres undefined) .
NO

Please indicate how the test categorized Fc1ccc(Cc2ccc(F)cc2)cc1 .
NO

Could you check what this test reported for CCc1ccc(C(c2ccc(CC)cc2)C(Cl)(Cl)CCl)cc1 ?
NO

Check the results log: what was the call for CC1(C)CC(C(=O)OCCCCCCCCCCC[P+](c2ccccc2)(c2ccccc2)c2ccccc2)C(C)(C)N1O (centres undefined) ?
YES

What outcome does the record of this test show for CCN(CC)Cc1cc(Nc2c3ccccc3nc3cc(Cl)ccc23)ccc1O ?
YES

What classification did CN(C)c1ccc(/C=C\C2=[N+](C)c3ccccc3C2(C)C)cc1 end up with in this test?
YES

I'd appreciate the recorded outcome for NC(CC(=O)O)C(=O)OCc1ccccc1 (centres undefined) from this test.
NO

How did this test come out for CCC(=O)OCc1cccc(OC)c1 ?
NO

Kindly provide the recorded test outcome for the following compound: NC(=S)N/N=C/c1ccc(OCc2ccccc2)cc1
NO

Test call, this compound: CC[C@]12C=CCN3CC[C@@]4(c5ccc(OC)cc5N(C)[C@H]4[C@@](O)(C(=O)OC)[C@@H]1OC(=O)CCC(=O)N[C@@H](Cc1c[nH]c4ccccc14)C(=O)OC)[C@@H]32
NO

Please let me know the test result on file for CC[n+]1ccc2c(c1)C(=O)c1nccc3c1c-2nc1ccccc13 .
YES

* * *

# Tested on: U251 CNS
# Assay Name: NCI-60 one-dose screen, 48 h
# Details: 10 µM unless noted
Compounds without any hit were thinned out: in the full panel of roughly 83,000, 20% have a hit. The source made the active and inactive calls. The calls were made as follows: active = growth percent below 10; inactive = the rest.
Write down the outcome that applies. Available outcomes: 1 (yes) for active, 0 (no) for inactive

Recorded test outcome, item Cn1c2ccccc2c2c3c(c4c5ccccc5[nH]c4c21)C(=O)N(N)C3=O
0 (no)

Test call for this compound, please: O=C(/C=C\c1cccc([N+](=O)[O-])c1)c1ccccc1
0 (no)

Hi team, can someone confirm the assay call for CSc1ncnc2c1ncn2C1CCCO1 (centres undefined) ?
0 (no)

Short answer needed: outcome of this test for COc1ccc(-c2c(C)noc2-c2ccc(O)cc2O)cc1 ?
0 (no)

Assay outcome for O=C(Cc1ccccc1)c1ccc(Cl)cc1 : what was it?
0 (no)

Dear all, I need the recorded test outcome for CC1CN(C(C)C)C(=S)N(c2ccccc2)C1=O (centres undefined) , thank you.
0 (no)

Just curious, what result did CCN(C(=O)CN1CCN(c2cc3c(cc2F)c(=O)c(C(=O)O)cn3CC)CC1)c1nc(-c2ccccc2)cs1 get here?
1 (yes)

// outcome(item) with item = C=C1CC2(OC1=O)C(=O)N(CCCCCCCN1C(=O)C3(CC(=C)C(=O)O3)c3ccccc31)c1ccccc12 (centres undefined)
0 (no)

Which outcome was assigned to COc1cccc(-c2nc3sccn3c2-c2ccnc(NCCCNS(=O)(=O)c3ccc(Cl)cc3)c2)c1 in this test?
0 (no)

Short answer needed: outcome of this test for CCOC(=O)c1c2ncccc2n2c(=O)n(-c3ccc(Cl)cc3)nnc12 ?
0 (no)

Outcome logged for O=C(O)c1c([N+](=O)[O-])cnc2ccccc12 in this assay:
0 (no)

Can you look up the reported call for C[C@@H]1CCC2=C(CCC[C@]2(C)C(=O)O)[C@@]1(C)CCc1ccoc1 for me?
0 (no)

Please let me know the test result on file for C=CC[N+]1(CCO)CCN=C1CCCCCCCCCCCCC (centres undefined) .
1 (yes)

Record lookup: outcome of this test for O=C(CNC1C2CC3CC(C2)CC1C3)Sc1nnc2sc3ccccc3n12 (centres undefined) ?
0 (no)

# lookup: test call for C=C1C(=O)O[C@H]2[C@H]1CC/C(Cn1cc(Cc3c[nH]c4ccccc34)nn1)=C\CC[C@@]1(C)O[C@@H]21
0 (no)

Recorded call for O=C(O)c1ccccc1Nc1cccc(S(F)(F)(F)(F)F)c1 ?
0 (no)

For Nc1nc(SCc2ccccc2)c2ncn(C3CCCC3)c2n1 , which call appears in the assay record?
1 (yes)

GET /call?item= CN1CCN(Cc2ccc(NC(=O)c3[nH]ncc3Nc3ncnc4c3CCC4)cc2)CC1 returns the recorded outcome of this test.
0 (no)

What did the test return for CN(CC(=O)N(Cc1ccc(C2CCCCC2)cc1)c1ccc(C(=O)NO)cc1)S(=O)(=O)c1c(F)c(F)c(F)c(F)c1F ?
0 (no)

// outcome(item) with item = COc1cc2nc3cc([N+](=O)[O-])ccc3c(NCCCNCC(C)(C)O)c2cc1OC
1 (yes)

Tell me the recorded outcome of this test for CCN(CC)CCCCNc1ccc(NCCCCN(CC)CC)c2c1C(=O)c1ccccc1C2=O .
0 (no)

Would you mind telling me which call this test gave CN(C)CC(=O)Nc1ccc(Cn2nnc3c2C(=O)c2nnn(Cc4ccc(NC(=O)CN(C)C)cc4)c2C3=O)cc1 ?
1 (yes)

Please state the recorded outcome for this compound: CC/C(Cc1ccccc1)=C(/c1ccc(O)cc1)c1ccc(OCCN2CCCC2)cc1
1 (yes)

Per the assay record, what outcome was assigned to C/C(=C(/c1ccc(O)cc1)c1ccc(Cl)cc1)c1ccccc1 ?
1 (yes)

// return assay outcome for COc1cnc2c(c1)C(=O)c1c-2n(CCCN2CCCC2)c(=O)c2cc([N+](=O)[O-])ccc12
1 (yes)

Hi, do you know how CCC(=O)OCc1cccc(OC)c1 came out in this test?
0 (no)

Given Cc1cc(N/N=C/c2nc(-c3ccc(Cl)cc3)oc2C)c2cc(Br)ccc2n1 , state the outcome it received in this test.
1 (yes)

Tell me the recorded outcome of this test for CCOC(=O)C12CCCC1=CC(=O)CC2 (centres undefined) .
0 (no)

Could you kindly confirm the outcome this assay logged for CNCc1cccc2c1OCCOCCOCCN(C)S(=O)(=O)c1ccc(cc1)-c1cnc(N)c(n1)C(=O)N2 ?
0 (no)
